meta.source: patent US12404251B2

# Experiment notes: Pharmacokinetics in Sprague-Dawley rats (plasma and brain)
# Type: in vivo, rat
# Condition context: Sprague-Dawley, rat, in vivo, plasma bioavailability
# Description: Sprague-Dawley rats were administered CPT-2008 by IV or PO. Blood samples (about 1 mL) were collected via cardiac puncture after euthanasia by carbon dioxide inhalation at 5 min, 15 min, 30 min, 1 h, 2 h, 4 h, 8 h, 24 h of post dose. Blood samples were placed into tubes containing heparin sodium and centrifuged at 3500 rpm for 10 minutes at 4° C. to separate plasma from the samples. […]

{"columns": ["Molecule", "bioavailability"],
 "data": [
  ["COc1cc(-n2c(S)nc3cc(OC)c(Cl)cc3c2=O)c(Cl)cc1Cl [CPT-2008]", "94.5%"]
]}

###

# Experiment notes: in vitro
# Format: in vitro ADME
# Condition context: human, hepatocytes, half-life

{"columns": ["Molecule", "half-life"],
 "data": [
  ["COc1cc(-n2c(S)nc3cc(OC)c(Cl)cc3c2=O)c(Cl)cc1Cl [CPT-2008]", "~94.3 h"]
]}
